target: human LAG3 expressed on cells (human) (UniProt P18627); test: cell-based or functional assay
Sequence (P18627 23-525): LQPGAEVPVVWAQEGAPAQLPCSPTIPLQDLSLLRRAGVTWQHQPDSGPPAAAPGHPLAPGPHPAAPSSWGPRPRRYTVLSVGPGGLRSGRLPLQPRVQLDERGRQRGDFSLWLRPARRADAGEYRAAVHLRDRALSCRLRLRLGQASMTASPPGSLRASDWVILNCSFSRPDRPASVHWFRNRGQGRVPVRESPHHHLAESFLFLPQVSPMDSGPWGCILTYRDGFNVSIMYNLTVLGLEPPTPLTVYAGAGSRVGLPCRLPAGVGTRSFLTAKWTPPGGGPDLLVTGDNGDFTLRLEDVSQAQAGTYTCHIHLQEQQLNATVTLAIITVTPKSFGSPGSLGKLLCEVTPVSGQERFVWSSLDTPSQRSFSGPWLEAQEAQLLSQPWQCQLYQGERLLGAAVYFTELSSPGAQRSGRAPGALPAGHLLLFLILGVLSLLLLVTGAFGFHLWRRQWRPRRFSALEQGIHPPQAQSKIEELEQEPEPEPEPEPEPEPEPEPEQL

{"columns": ["Binder", "IL-2, % of BMS, at 0.24691358 ug/mL, %"],
 "data": [
  ["sdAb fusion 25-27-3 (Fc fusion, not shown: a dimerising Fc or GST) QLQLVESGGGLVQAGGSLRLSCAASGSIESFSFMGWYRQAPGKQRELVAGFTGAASLSFSTYTDAVKGRFTISRDNAKNTVYLQMNSLKPEDTAVYFCNVDPWSQSWPGRYWGQGTQVTVSSGGGGSGGGGSGGGGSQVQLVESGGGLVQPGGSLRLSCAASGFTLDYYAIGWFRQAPGKEREGVSCIRSSDGSTYYADSVKGRFTISSDNTKNTVYLQMNSLKPEDTAVYYCATDRYSDCRGPYENWGQGTQVTVSSEPKSCDKTHTCPPCPAPELLG", 3.53],
  ["sdAb fusion 25-2015-2 (Fc fusion, not shown: a dimerising Fc or GST) QLQLVESGGGLVQAGGSLRLSCAASGSIESFSFMGWYRQAPGKQRELVAGFTGAASLSFSTYTDAVKGRFTISRDNAKNTVYLQMNSLKPEDTAVYFCNVDPWSQSWPGRYWGQGTQVTVSSGGGGSGGGGSQLQLVESGGGLAQTGGSLRLSCAAAGFTFDDTATGWFRQAPGKNREGVACISSSDGRIHYIDSAKGRFTISKDNAKKTVYLQMDSLKPEDTAVYYCAAARKGSTDCQGAIWGSWGQGTQVIVSSEPKSCDKTHTCPPCPAPELLG", 20.9]
]}
